Tested on: ARH-77 (Non-Cancerous)
method: combination Emax (second highest fraction inhibited in the dose matrix, 72 h); higher = more inhibition; extreme values may be limits of the assay
As shown below, each of these compounds has a reported combination Emax value.

Q. Look at this compound and give its reported combination Emax. COc1cc2c(cc1OCCCCCOc1cc3c(cc1OC)C(=O)N1C=C(C)C[C@H]1C=N3)N=C[C@@H]1CC(C)=CN1C2=O [SG3199] + O=C(c1cc(Cc2n[nH]c(=O)c3ccccc23)ccc1F)N1CCN(C(=O)C2CC2)CC1 [Olaparib] (first compound max 0.001 µM, 7x7, partner max 10 µM)
A. 0.221

Others:
Q. Look at this compound and give its reported combination Emax. COc1nnc2ccc(N3CCC(c4ccc(OCCN5CCN(C)C(=O)[C@H]5C)cc4)CC3)nn12 [AZD5153] + CN(CC[C@H](CSC1=CC=CC=C1)NC2=C(C=C(C=C2)S(=O)(=O)NC(=O)C3=CC=C(C=C3)N4CCC(CC4)[C@H](C5=CC=CC=C5C6=CC=C(C=C6)Cl)O)S(=O)(=O)C(F)(F)F)CCO [AZD4320] (first compound max 1 µM, 7x7, partner max 1 µM)
A. 0.965

Q. Look at this compound and give its reported combination Emax. COc1cccc(OCCCN)c1-c1cc(Nc2cnc(C#N)cn2)n[nH]1 [Prexasertib] + CN(C)CCCOc1ccc(-c2ccc3ncc4c(c3c2)n(C2CCOCC2)c(=O)n4C)cn1 [AZD0156] (first compound max 1 µM, 7x7, partner max 1 µM)
A. 1

====

Tested on: TT2609-C02 (Thyroid Gland Carcinoma)
method: combination Emax (second highest fraction inhibited in the dose matrix, 72 h); higher = more inhibition; extreme values may be limits of the assay
As shown below, each of these molecules has a reported combination Emax value.

Q. Look at this molecule and give its reported combination Emax. Cc1c2c(nn1C)CSCc1cc(n(C)n1)CSc1cc(c3ccccc3c1)OCCCc1c(C(=O)O)n(C)c3c-2c(Cl)ccc13 [AZD5991] + Cn1cnc2c(F)c(Nc3ccc(Br)cc3Cl)c(C(=O)NOCCO)cc21 [Selumetinib] (first compound max 1 µM, 7x7, partner max 3 µM)
A. 0.569

Others:
Q. Look at this molecule and give its reported combination Emax. Cc1c2c(nn1C)CSCc1cc(n(C)n1)CSc1cc(c3ccccc3c1)OCCCc1c(C(=O)O)n(C)c3c-2c(Cl)ccc13 [AZD5991] + C=CCn1c(=O)c2cnc(Nc3ccc(N4CCN(C)CC4)cc3)nc2n1-c1cccc(C(C)(C)O)n1 [AZD1775] (first compound max 1 µM, partner max 1 µM)
A. 0.617

Q. Look at this molecule and give its reported combination Emax. Cn1cnc2c(F)c(Nc3ccc(Br)cc3Cl)c(C(=O)NOCCO)cc21 [Selumetinib] + C=CCn1c(=O)c2cnc(Nc3ccc(N4CCN(C)CC4)cc3)nc2n1-c1cccc(C(C)(C)O)n1 [AZD1775] (first compound max 10 µM, partner max 1 µM)
A. 0.655

====

Test system: 8-MG-BA (Glioblastoma)
method: combination Emax (second highest fraction inhibited in the dose matrix, 72 h); higher = more inhibition; extreme values may be limits of the assay
valueType: combination Emax
Response field accepts a number only; no unit should be typed.

Here is how some compounds turned out for combination Emax.
Q. Look at this compound and give its reported combination Emax. CC1(C)CCC(CN2CCN(c3ccc(C(=O)NS(=O)(=O)c4ccc(NCC5CCOCC5)c([N+](=O)[O-])c4)c(Oc4cnc5[nH]ccc5c4)c3)CC2)=C(c2ccc(Cl)cc2)C1 [Venetoclax] + Cc1cc2ncnn2cc1Nc1ncc2c(n1)n(C1CCOCC1)c(=O)n2C [AZD7648] (first compound max 1 µM, 7x7, partner max 10 µM)
A. 0.133

Q. Look at this compound and give its reported combination Emax. Cc1c2c(nn1C)CSCc1cc(n(C)n1)CSc1cc(c3ccccc3c1)OCCCc1c(C(=O)O)n(C)c3c-2c(Cl)ccc13 [AZD5991] + Cc1cc2ncnn2cc1Nc1ncc2c(n1)n(C1CCOCC1)c(=O)n2C [AZD7648] (first compound max 1 µM, 7x7, partner max 10 µM)
A. 0.646

Q. Look at this compound and give its reported combination Emax. Cn1cnc2c(F)c(Nc3ccc(Br)cc3Cl)c(C(=O)NOCCO)cc21 [Selumetinib] + CC(C)n1c(=O)n(C)c2cnc3cc(F)c(-c4ccc(OCCCN5CCCCC5)nc4)cc3c21 [AZD1390] (first compound max 10 µM, 7x7, partner max 0.3 µM)
A. 0.116

Okay, now this compound:
Q. Look at this compound and give its reported combination Emax. CN(C)CCCOc1ccc(-c2ccc3ncc4c(c3c2)n(C2CCOCC2)c(=O)n4C)cn1 [AZD0156] + CCN(CCO)CCCOc1ccc2c(Nc3cc(CC(=O)Nc4cccc(F)c4)[nH]n3)ncnc2c1 [AZD2811] (first compound max 1 µM, 7x7, partner max 1 µM)
A. 0.215

====

System: CAL-29 (Bladder Carcinoma)
method: Bliss excess, mean over the matrix (fraction); higher = more synergy
valueType: Bliss excess
Response field accepts a number only; no unit should be typed.

Q. Look at this compound and give its reported Bliss excess. COc1cccc(OCCCN)c1-c1cc(Nc2cnc(C#N)cn2)n[nH]1 [Prexasertib] + C=CCn1c(=O)c2cnc(Nc3ccc(N4CCN(C)CC4)cc3)nc2n1-c1cccc(C(C)(C)O)n1 [AZD1775] (first compound max 1 µM, partner max 1 µM)
A. -0.0079

====

Test system: PA-1 (Ovarian Carcinoma)
method: Bliss excess, mean over the matrix (fraction); higher = more synergy
valueType: Bliss excess

Here is how some compounds turned out for Bliss excess.
Q. Look at this compound and give its reported Bliss excess. Cc1cc2ncnn2cc1Nc1ncc2c(n1)n(C1CCOCC1)c(=O)n2C [AZD7648] + C=CCn1c(=O)c2cnc(Nc3ccc(N4CCN(C)CC4)cc3)nc2n1-c1cccc(C(C)(C)O)n1 [AZD1775] (first compound max 10 µM, partner max 1 µM)
A. -0.0024

Q. Look at this compound and give its reported Bliss excess. C=CCn1c(=O)c2cnc(Nc3ccc(N4CCN(C)CC4)cc3)nc2n1-c1cccc(C(C)(C)O)n1 [AZD1775] + C1CN(CCC1(C(=O)N[C@@H](CCO)C2=CC=C(C=C2)Cl)N)C3=NC=NC4=C3C=CN4 [Capivasertib] (first compound max 3 µM, partner max 3 µM)
A. -0.0229

Okay, now this compound:
Q. Look at this compound and give its reported Bliss excess. CC1(C)CCC(CN2CCN(c3ccc(C(=O)NS(=O)(=O)c4ccc(NCC5CCOCC5)c([N+](=O)[O-])c4)c(Oc4cnc5[nH]ccc5c4)c3)CC2)=C(c2ccc(Cl)cc2)C1 [Venetoclax] + C1CN(CCC1(C(=O)N[C@@H](CCO)C2=CC=C(C=C2)Cl)N)C3=NC=NC4=C3C=CN4 [Capivasertib] (first compound max 1 µM, 7x7, partner max 3 µM)
A. -0.0541

====

Test system: NCI-H1650 (Lung Adenocarcinoma)
method: Bliss excess, mean over the matrix (fraction); higher = more synergy
Response key: t means Bliss excess >= -0.04; f means Bliss excess < -0.04.

Before answering, review these 6 worked examples.
Q. Entry Cc1c2c(nn1C)CSCc1cc(n(C)n1)CSc1cc(c3ccccc3c1)OCCCc1c(C(=O)O)n(C)c3c-2c(Cl)ccc13 [AZD5991] + Cn1cnc2c(F)c(Nc3ccc(Br)cc3Cl)c(C(=O)NOCCO)cc21 [Selumetinib] (first compound max 1 µM, 7x7, partner max 3 µM) : is its Bliss excess no less than -0.04?
A. t

Q. Entry COc1cccc2c1C(=O)c1c(O)c3c(c(O)c1C2=O)C[C@@](O)(C(=O)CO)C[C@@H]3O[C@H]1C[C@H](N)[C@H](O)[C@H](C)O1 [Doxorubicin] + Cc1cc2ncnn2cc1Nc1ncc2c(n1)n(C1CCOCC1)c(=O)n2C [AZD7648] (first compound max 1 µM, 7x7, partner max 10 µM) : is its Bliss excess no less than -0.04?
A. t

Q. Entry CC1(C)CCC(CN2CCN(c3ccc(C(=O)NS(=O)(=O)c4ccc(NCC5CCOCC5)c([N+](=O)[O-])c4)c(Oc4cnc5[nH]ccc5c4)c3)CC2)=C(c2ccc(Cl)cc2)C1 [Venetoclax] + C=CCn1c(=O)c2cnc(Nc3ccc(N4CCN(C)CC4)cc3)nc2n1-c1cccc(C(C)(C)O)n1 [AZD1775] (first compound max 1 µM, partner max 1 µM) : is its Bliss excess no less than -0.04?
A. t

Q. Entry CN(C)CCCOc1ccc(-c2ccc3ncc4c(c3c2)n(C2CCOCC2)c(=O)n4C)cn1 [AZD0156] + C=CCn1c(=O)c2cnc(Nc3ccc(N4CCN(C)CC4)cc3)nc2n1-c1cccc(C(C)(C)O)n1 [AZD1775] (first compound max 1 µM, partner max 1 µM) : is its Bliss excess no less than -0.04?
A. f

Q. Entry CC1(C)CCC(CN2CCN(c3ccc(C(=O)NS(=O)(=O)c4ccc(NCC5CCOCC5)c([N+](=O)[O-])c4)c(Oc4cnc5[nH]ccc5c4)c3)CC2)=C(c2ccc(Cl)cc2)C1 [Venetoclax] + Cc1cc2ncnn2cc1Nc1ncc2c(n1)n(C1CCOCC1)c(=O)n2C [AZD7648] (first compound max 1 µM, 7x7, partner max 10 µM) : is its Bliss excess no less than -0.04?
A. f

Q. Entry COc1nnc2ccc(N3CCC(c4ccc(OCCN5CCN(C)C(=O)[C@H]5C)cc4)CC3)nn12 [AZD5153] + CN(CC[C@H](CSC1=CC=CC=C1)NC2=C(C=C(C=C2)S(=O)(=O)NC(=O)C3=CC=C(C=C3)N4CCC(CC4)[C@H](C5=CC=CC=C5C6=CC=C(C=C6)Cl)O)S(=O)(=O)C(F)(F)F)CCO [AZD4320] (first compound max 1 µM, 7x7, partner max 1 µM) : is its Bliss excess no less than -0.04?
A. t

Others:
Q. Entry CC1(C)CCC(CN2CCN(c3ccc(C(=O)NS(=O)(=O)c4ccc(NCC5CCOCC5)c([N+](=O)[O-])c4)c(Oc4cnc5[nH]ccc5c4)c3)CC2)=C(c2ccc(Cl)cc2)C1 [Venetoclax] + Cn1cnc2c(F)c(Nc3ccc(Br)cc3Cl)c(C(=O)NOCCO)cc21 [Selumetinib] (first compound max 1 µM, 7x7, partner max 3 µM) : is its Bliss excess no less than -0.04?
A. f
